Taken from ChEMBL document CHEMBL1127942.

# system-name: Protein farnesyltransferase (Homo sapiens, UniProt P49354+P49356)
# method: Inhibition of Protein farnesyltransferase (FPT)
# measurement-parameters: read-out: I50
pIC50: −log10 of the molar value.
# binarize pIC50: threshold 4 inclusive, high side t, low side f

CC(C)C[C@H](NC(=O)[C@@H](NC(=O)c1cccc(OCc2ccccc2)c1)C(C)C)C(=O)N[C@@H](CO)C(=O)O ... f

**Query** # bool: pIC50 of "CC(C)C[C@H](NC(=O)[C@@H](NC(=O)c1ccccc1O)C(C)C)C(=O)N[C@@H](CO)C(=O)O" >= 4
**Result** f

**Query** # bool: pIC50 of "CC(C)C[C@H](NC(=O)[C@@H](NC(=O)c1cccc(OCc2ccccc2)c1O)C(C)C)C(=O)N[C@@H](CO)C(=O)O" >= 4
**Result** f

**Query** # bool: pIC50 of "CC(C)C[C@H](NC(=O)[C@@H](NC(=O)c1ccccc1OCc1ccccc1)C(C)C)C(=O)N[C@@H](CO)C(=O)O" >= 4
**Result** t

**Query** # bool: pIC50 of "CC(C)C[C@H](NC(=O)[C@@H](NC(=O)c1ccc(OCc2ccccc2)cc1)C(C)C)C(=O)N[C@@H](CO)C(=O)O" >= 4
**Result** f

**Query** # bool: pIC50 of "CC(C)C[C@H](NC(=O)[C@@H](NC(=O)c1cc(O)ccc1OCc1ccccc1)C(C)C)C(=O)N[C@@H](CO)C(=O)O" >= 4
**Result** f

**Query** # bool: pIC50 of "CC(C)C[C@H](NC(=O)[C@@H](NC(=O)c1ccc(O)cc1)C(C)C)C(=O)N[C@@H](CO)C(=O)O" >= 4
**Result** f

**Query** # bool: pIC50 of "CC(C)C[C@H](NC(=O)[C@@H](NC(=O)c1cccc(O)c1)C(C)C)C(=O)N[C@@H](CO)C(=O)O" >= 4
**Result** t

**Query** # bool: pIC50 of "CC(C)C[C@H](NC(=O)[C@@H](NC(=O)CCS)C(C)C)C(=O)N[C@@H](CO)C(=O)O" >= 4
**Result** t

**Query** # bool: pIC50 of "CC(C)C[C@H](NC(=O)[C@@H](NC(=O)c1cccc(O)c1OCc1ccccc1)C(C)C)C(=O)N[C@@H](CO)C(=O)O" >= 4
**Result** f

**Query** # bool: pIC50 of "CC(C)C[C@H](NC(=O)[C@@H](NC(=O)[C@@H](N)CO)C(C)C)C(=O)N[C@@H](CO)C(=O)O" >= 4
**Result** f
